test system: PC-3 prostate; experiment: NCI tumour cell line growth inhibition, 48 h; in the data active = GI50 below about 0.43 µM; inactive = the rest
Choose the fitting class; nothing outside active, inactive is accepted.

[
  {
    "compound": "CC1(C)N=C(N)N=C(N)N1c1cccc(/C=C/C=C/c2cccc([N+](=O)[O-])c2)c1",
    "qualitative label": "inactive"
  },
  {
    "compound": "COC(=O)c1cnc(=O)n(C2CC(O)C(CO)O2)c1 (centres undefined)",
    "qualitative label": "inactive"
  }
]

IN: Hi, do you know how Cc1cc(NC(=O)C2c3ccccc3C(=O)N(CC(C)C)C2c2cccs2)no1 (centres undefined) came out in this test?
OUT: inactive

IN: Hi, do you know how COc1cc[nH]c1/C=C1\C(=O)Nc2ccc(F)c(C#C[C@@H](O)[C@@H](N)[C@@H](C)O)c21 came out in this test?
OUT: active

IN: Hi, do you know how CC1(C)CC(=O)C2=C(C1)NC(SSC1=C(C#N)C(c3ccccc3)C3=C(CC(C)(C)CC3=O)N1)=C(C#N)C2c1ccccc1 (centres undefined) came out in this test?
OUT: inactive

IN: Hi, do you know how O=C(Nc1n[nH]c2nc(-c3ccco3)c(Br)cc12)C1CC1 came out in this test?
OUT: inactive

IN: Hi, do you know how CC12OC(C(=O)C13CC3)C1C(=O)c3ccccc3C(=O)C12 (centres undefined) came out in this test?
OUT: inactive

IN: Hi, do you know how COc1cc2cc(Oc3ccc(NC(=O)Nc4ccc(F)c(C(F)(F)F)c4)cc3)c(C)nc2cc1OCCN1CCCCC1 came out in this test?
OUT: inactive

IN: Hi, do you know how N#C/C(=C\c1c(-c2ccccc2)[nH]c2ccccc12)C(=O)c1ccc(Cl)cc1 came out in this test?
OUT: inactive

###

test system: UACC-62 melanoma; test: NCI tumour cell line growth inhibition, 48 h
metric name: log10 of TGI (log10 of the value in µM)
The figures below represent log10 of TGI, where TGI is stated in µM.

Consider the worked cases shown below.
[
  {
    "compound": "CC(Cl)(/C=C/Cl)C(Cl)/C=C/C(Cl)(CCl)CBr (stereo unspecified)",
    "log10 of TGI": 0.72
  },
  {
    "compound": "Cn1ncc2cc3c(Nc4ccc(Cl)cc4)cccc3nc21",
    "log10 of TGI": 1.51
  },
  {
    "compound": "Cc1cccc(/C=N/NC(=S)NCc2ccccn2)n1",
    "log10 of TGI": 1.73
  }
]

IN: Consider the compound C1CCC([PH+](C2CCCCC2)C2CCCCC2[PH+](C2CCCCC2)C2CCCCC2)CC1.[Au].[CH-]1CCCCC1C1CCCC[N-]1 (stereo unspecified) and give its recorded log10 of TGI.
OUT: -0.01

IN: Consider the compound O=C(NCCN1C(=O)CN=C(c2ccc(Cl)cc2)c2cc(Cl)ccc21)OCc1ccccc1 and give its recorded log10 of TGI.
OUT: 1.59

IN: Consider the compound Cc1ccc(S(=O)(=O)NC(CCC(=O)Nc2ccc(Cl)cc2)C(=O)Nc2ccc(Cl)cc2)cc1 (stereo unspecified) and give its recorded log10 of TGI.
OUT: -0.44

IN: Consider the compound CC(=O)O[C@H]1C(=O)[C@@]2(C)C([C@H](OC(=O)c3ccccc3)[C@]3(O)C[C@H](OC(=O)[C@H](O)[C@H](NC(=O)c4ccccc4)c4ccc(Cl)cc4)C(C)=C1C3(C)C)C1(OC(C)=O)CO[C@@H]1C[C@@H]2O (stereo partly specified) and give its recorded log10 of TGI.
OUT: -2.38

IN: Consider the compound Cc1nc2c(o1)C(=O)c1ccccc1C2=NC1CCCCC1N (stereo unspecified) and give its recorded log10 of TGI.
OUT: -0.50

###

tested on: SF-539 CNS; test: NCI tumour cell line growth inhibition, 48 h
# Lookup of reported GI50 keyed by entry

Consider the worked cases shown below.
[
  {
    "compound": "Cc1ccc(-c2c(C#N)c(N)nc(N3CCOCC3)c2C#N)o1",
    "study target": "SF-539 CNS",
    "metric name": "GI50",
    "value measured": "48.3 µM"
  },
  {
    "compound": "COc1cc(-c2cc(C(=O)N3CCN(C(=O)c4ccccc4NCc4ccco4)CC3)nc3cc(-c4ccccc4)nn23)cc(OC)c1OC",
    "study target": "SF-539 CNS",
    "metric name": "GI50",
    "value measured": "3.11 µM"
  },
  {
    "compound": "O=[N+]([O-])c1ccc(N/N=C\\c2cc(Cl)ccc2O)nc1",
    "study target": "SF-539 CNS",
    "metric name": "GI50",
    "value measured": "3.02 µM"
  },
  {
    "compound": "CCCCCCCCCCCCCCCCCCNC(=O)[C@H]1CSC(c2ccc(OC)c(F)c2)N1 (some centres undefined)",
    "study target": "SF-539 CNS",
    "metric name": "GI50",
    "value measured": "4.67 µM"
  },
  {
    "compound": "C[C@@H](c1ccc2nccn2c1)n1nnc2ncc(-c3cnn(C)c3)nc21",
    "study target": "SF-539 CNS",
    "metric name": "GI50",
    "value measured": "> 100 µM"
  },
  {
    "compound": "CCOC(=O)c1cnc(SCc2ccc(Cl)c(Cl)c2)nc1N1CC1",
    "study target": "SF-539 CNS",
    "metric name": "GI50",
    "value measured": "3.3 µM"
  },
  {
    "compound": "COc1cc2cc(Oc3ccc(NC(=O)Nc4ccc(F)c(C(F)(F)F)c4)cc3)c(C)nc2cc1OCCN1CCCCC1",
    "study target": "SF-539 CNS",
    "metric name": "GI50",
    "value measured": "1.68 µM"
  },
  {
    "compound": "COc1cc(C2CC(c3cccc(Nc4ccncc4)c3)=NN2c2cc(Cl)cc(Cl)c2)cc(OC)c1OC (centres undefined)",
    "study target": "SF-539 CNS",
    "metric name": "GI50",
    "value measured": "1.72 µM"
  }
]

IN: Consider the compound COC(=O)[C@]12CC[C@@H](C)[C@H](C)[C@@H]1C1=CC[C@@H]3[C@@]4(C)CC(=O)[C@H](O)[C@@]5(C)COC(=C45)C[C@@]3(C)[C@]1(C)CC2 and give its recorded GI50.
OUT: 18.8 µM

IN: Consider the compound COc1cc2cc(Oc3ccc(NC(=O)Nc4cccc(C(F)(F)F)c4)cc3)c(C)nc2cc1OCCN1CCCCC1 and give its recorded GI50.
OUT: 1.67 µM

IN: Consider the compound CC(=O)c1ccc(Nc2cc(-n3ccnc3)nc3ccccc23)cc1 and give its recorded GI50.
OUT: 40.6 µM

IN: Consider the compound C[C@H]1[C@H](OC(=O)CCC(=O)O)O[C@@H]2O[C@]3(C)CC[C@H]4[C@H](C)CC[C@@H]1[C@@]24OO3 and give its recorded GI50.
OUT: 0.667 µM

IN: Consider the compound CCCCCCCCCCCCc1ccc(C(=O)/C=C/C(=O)O)cc1 and give its recorded GI50.
OUT: 1.73 µM

IN: Consider the compound OB([O][Hg][c]1ccccc1)[O][Hg][c]1ccccc1 and give its recorded GI50.
OUT: 1.09 µM

###

tested on: CAKI-1 renal; assay: NCI tumour cell line growth inhibition, 48 h
metric name: TGI

Consider the worked cases shown below.
[
  {
    "compound": "CC(CC(=O)CO[C@H]1[C@H](O)[C@@H](O)[C@@H](O)[C@@H]2NC(=O)c3c(cc4c(c3O)OCO4)[C@H]21)OC1OC(CO)C(O)C(O)C1O (some centres not stated)",
    "TGI": "> 100 µM"
  },
  {
    "compound": "Cc1cc(NC(=O)C2c3ccccc3C(=O)N(CC(C)C)C2c2cccs2)no1 (configuration not stated)",
    "TGI": "> 100 µM"
  },
  {
    "compound": "CC(Cl)(/C=C/Cl)C(Cl)/C=C/C(Cl)(CCl)CBr (configuration not stated)",
    "TGI": "28.1 µM"
  },
  {
    "compound": "CCOC(=O)c1cccc(=O)c(C(=O)OCC)c1",
    "TGI": "> 100 µM"
  },
  {
    "compound": "O=C(Nc1n[nH]c2nc(-c3ccco3)c(Br)cc12)C1CC1",
    "TGI": "> 25 µM"
  }
]

IN: Consider the compound FC(F)(F)P1C2C=CC(CC2)C1(F)F (configuration not stated) and give its recorded TGI.
OUT: > 100 µM

IN: Consider the compound NC(N)=NC(CC(=O)O)c1ccccc1 (configuration not stated) and give its recorded TGI.
OUT: > 100 µM

IN: Consider the compound COc1cc(C2C(Cl)C(=O)N2n2cnc3ccccc3c2=O)cc(OC)c1OC (configuration not stated) and give its recorded TGI.
OUT: > 100 µM

IN: Consider the compound Oc1c(C2=NNC(c3cccs3)C2)ccc2ccccc12 (configuration not stated) and give its recorded TGI.
OUT: > 100 µM

IN: Consider the compound O=C1c2cc3c(cc2-c2c1c1cc(Cl)c(Cl)cc1c(=O)n2CCCn1ccnc1)OCO3 and give its recorded TGI.
OUT: > 100 µM

IN: Consider the compound CCOC(=O)c1cccc(NC(=O)CBr)c1 and give its recorded TGI.
OUT: 1.16 µM

IN: Consider the compound N#Cc1ncn(-c2ccccc2)c1N and give its recorded TGI.
OUT: > 100 µM

IN: Consider the compound Cn1nc(-c2ccccc2NC(=O)C(F)(F)F)c(=O)n(C)c1=S and give its recorded TGI.
OUT: 89.4 µM

IN: Consider the compound CCOC(=O)c1c(O)[nH]c(=O)c(CC)c1C and give its recorded TGI.
OUT: > 100 µM

IN: Consider the compound COC(=O)c1ccc2c(c1)CC1(C2)Cc2cc3c(c(C(=O)OC)c2C1)CCCC3 (configuration not stated) and give its recorded TGI.
OUT: > 100 µM

IN: Consider the compound CC(=O)Oc1c(C)cc(-c2cc(C)c(OC(C)=O)c(C)c2)cc1C and give its recorded TGI.
OUT: > 100 µM

IN: Consider the compound CCOP(=O)(OCC)C1C(=O)O[C@H]2CCCC[C@@H]12 (some centres not stated) and give its recorded TGI.
OUT: > 100 µM
